- target-desc: ΔF508 CFTR (Homo sapiens, UniProt P13569, DEL508-508)
- Construct: expressed in transfected cells; host or cells: FRT epithelial cells (Fischer rat thyroid)
- Sequence (P13569 with tags, fused parts or gaps DEL508-508): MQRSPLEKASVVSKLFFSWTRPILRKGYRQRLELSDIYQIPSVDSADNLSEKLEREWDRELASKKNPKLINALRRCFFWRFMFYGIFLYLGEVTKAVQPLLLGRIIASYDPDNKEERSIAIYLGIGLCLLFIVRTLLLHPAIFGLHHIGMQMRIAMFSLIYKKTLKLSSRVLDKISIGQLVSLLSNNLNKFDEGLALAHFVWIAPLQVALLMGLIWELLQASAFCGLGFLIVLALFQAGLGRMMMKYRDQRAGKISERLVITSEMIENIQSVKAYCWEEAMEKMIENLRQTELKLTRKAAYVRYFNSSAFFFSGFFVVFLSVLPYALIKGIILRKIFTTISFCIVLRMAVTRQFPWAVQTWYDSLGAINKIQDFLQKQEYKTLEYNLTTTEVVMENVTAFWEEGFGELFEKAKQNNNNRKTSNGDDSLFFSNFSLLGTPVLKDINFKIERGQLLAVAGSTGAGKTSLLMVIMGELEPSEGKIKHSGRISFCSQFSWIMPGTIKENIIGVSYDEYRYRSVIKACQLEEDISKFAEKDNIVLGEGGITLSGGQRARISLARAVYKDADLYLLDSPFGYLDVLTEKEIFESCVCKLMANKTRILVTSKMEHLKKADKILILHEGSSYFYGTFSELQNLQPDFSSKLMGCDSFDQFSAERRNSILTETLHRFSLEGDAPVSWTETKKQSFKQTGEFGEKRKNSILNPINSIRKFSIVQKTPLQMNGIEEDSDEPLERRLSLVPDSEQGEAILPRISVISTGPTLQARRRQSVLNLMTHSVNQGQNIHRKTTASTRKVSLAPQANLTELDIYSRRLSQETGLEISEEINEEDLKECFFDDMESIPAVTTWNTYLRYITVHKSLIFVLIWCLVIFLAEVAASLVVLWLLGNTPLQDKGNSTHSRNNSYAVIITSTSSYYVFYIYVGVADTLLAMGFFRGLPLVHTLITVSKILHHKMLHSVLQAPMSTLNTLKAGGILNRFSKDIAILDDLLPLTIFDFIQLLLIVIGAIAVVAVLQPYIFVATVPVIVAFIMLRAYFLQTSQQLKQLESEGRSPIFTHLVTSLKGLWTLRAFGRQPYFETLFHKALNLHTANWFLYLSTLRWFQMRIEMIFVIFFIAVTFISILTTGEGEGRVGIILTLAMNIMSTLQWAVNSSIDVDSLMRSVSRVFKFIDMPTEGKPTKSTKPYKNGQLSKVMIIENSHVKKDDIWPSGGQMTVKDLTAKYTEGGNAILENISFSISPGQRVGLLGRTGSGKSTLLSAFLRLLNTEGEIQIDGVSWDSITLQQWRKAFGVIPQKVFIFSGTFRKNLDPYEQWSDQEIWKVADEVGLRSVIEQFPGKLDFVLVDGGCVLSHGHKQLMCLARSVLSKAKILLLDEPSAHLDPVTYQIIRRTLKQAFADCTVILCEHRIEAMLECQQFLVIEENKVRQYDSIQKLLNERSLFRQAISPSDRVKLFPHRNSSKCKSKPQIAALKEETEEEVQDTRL
- assay-remarks: Dual corrector potentiator assay, corrector mode: FRT cell Ussing chamber short circuit current after 24 hours exposure to compound
- Assay type: cell-based
- conditions-used: FRT cell monolayers, 24 hours exposure; EC50 defined as concentration giving >25% increase in whole cell Cl− conductance vs DMSO at 37° C.
Listing of recorded EC50 by entry.

Below are worked cases with known answers.
- compound: "C[C@H]1CC[C@@H](Nc2ncc(-c3ccc(OCC#N)cc3)c(OC3CCOC3)n2)CC1 (stereo partly shown)"
  target-desc: "ΔF508 CFTR (Homo sapiens, UniProt P13569, DEL508-508)"
  EC50: "> 10 µM"
- compound: "C[C@H]1CC[C@@H](Nc2ncc(-c3ccc(OCC#N)cc3)c(OCC3CC3)n2)CC1"
  target-desc: "ΔF508 CFTR (Homo sapiens, UniProt P13569, DEL508-508)"
  EC50: "> 20 µM"

# compound COc1nc(N[C@H]2CC[C@@H](C)CC2)ncc1-c1ccc(OCC#N)cc1 ; its EC50 = > 20 µM

# compound COc1nc(N[C@H]2CC[C@@H](C)CC2)ncc1-c1ccc(OC(C)C)cc1 ; its EC50 = < 10 µM
